assay.name: NCI Yeast Anticancer Drug Screen. Data for the mlh1 rad18 strain (AID 175)
assay.conditions: S. cerevisiae mlh1 rad18 strain growth inhibition; at 50.0 µM
The panel holds about 79,000 compounds, 15% with a hit somewhere; the sample as a whole holds those more often. Active and inactive are the calls of the source. Cut-off read from the data, not from the text of the source: active = growth inhibition above about 70%; inactive = the rest.
Output constraint: value belongs to TRUE = active, FALSE = inactive

# count of solved cases: 4
molecule	class.name
CC(C)(N)Cc1ccc(N)cc1	FALSE
CCCCSP(=O)(SCCCC)N1CCCCC1	TRUE
CC1CN1P(=O)(N1CCc2ccccc21)N1CC1C (stereo unspecified)	FALSE
CC1CN=C(NCc2ccccc2)S1 (stereo unspecified)	FALSE

Q: What did the test return for `[Cl][Sn]1([Cl])[CH2]CCCCCC[CH2][Sn]([Cl])([Cl])[CH2]CCCCCC[CH2]1` ?
A: FALSE

Q: What did the test return for CCCCN(CCCC)C(=O)C1C=C2c3cccc4[nH]cc(c34)CC2N(C)C1 (stereo unspecified) ?
A: FALSE
